- TEST_METHOD_NOTES: Toxicity in the mouse (Litchfield and Wilcoxon)
- Format: in vivo
- RECORDED_CONDITIONS: mouse, in vivo, iv
Where a name gives a salt, the structure may show the parent alone.
# LD50 per entry
Record the value in mg/kg, omitting the unit from your answer.

CCCCCC(C)NCc1c(C)cc(C)cc1C (stereo not drawn) [Serial No. 2, hydrochloride]
11.7

Kindly review the next molecule as well.
Param item = CCCCCC(C)NCc1c(C)cc(C)cc1C (single isomer, unassigned) [compound 3] ; retrieve measured LD50.
10.8

###

- TEST_METHOD_NOTES: Toxicity in the mouse (Litchfield and Wilcoxon)
- Assay type: in vivo
- RECORDED_CONDITIONS: mouse, in vivo, po
Structures can show the parent of a compound that is named as a salt.
READOUT_TYPE: LD50 (mg/kg)
Record the value in mg/kg, omitting the unit from your answer.

CCCCCC(C)NCc1c(C)cc(C)cc1C (centres unmarked) [Serial No. 2, hydrochloride]
940

Kindly review the next compound as well.
Param item = CCC(C)C(C)NCc1c(C)cc(C)cc1C (centres unmarked) [Serial No. 27] ; retrieve measured LD50.
2400
